- cond: rat, microsomes
Give measured Rat. Pred. Cl. for each item. Keep answers brief.
One number for each entry, in L/H/kg.

Field: example entries. Status: answers known.
compound | Rat. Pred. Cl. (L/H/kg)
COC(=O)N[C@H](C(=O)N[C@@H](Cc1ccc(C#Cc2ccc(N3CC4CCC(C3)[N+]4(C)C3COC3)nc2)cc1)[C@@H](O)CN(Cc1c(F)cc(-c2ccn(C(F)F)n2)cc1F)NC(=O)[C@@H](NC(=O)OC)C(C)(C)C(F)(F)F)C(C)(C)C(F)(F)F (stereo partly shown) | 0.18
COC(=O)N[C@H](C(=O)N[C@@H](Cc1ccc(C#Cc2ccc(N3CC4CCC(C3)N4C3COC3)nc2)cc1)[C@@H](O)CN(Cc1c(F)cc(-c2ccc(C(F)F)cn2)cc1F)NC(=O)[C@@H](NC(=O)OC)C(C)(C)C(F)(F)F)C(C)(C)C(F)(F)F | 0.26
COC(=O)N[C@H](C(=O)N[C@@H](Cc1ccc(C#Cc2ccc(N3CC4CCC(C3)N4C3COC3)nc2)cc1)[C@@H](O)CN(Cc1ccc(-c2cnn(C(F)F)c2)cc1)NC(=O)[C@@H](NC(=O)OC)C(C)(C)C(F)(F)F)C(C)(C)C(F)(F)F | 0.2

// next item, Rat. Pred. Cl. requested
// recorded Rat. Pred. Cl. for COC(=O)N[C@H](C(=O)NN(Cc1c(F)cc(-c2cn(C(F)F)cn2)cc1F)C[C@H](O)[C@H](Cc1ccc(C#Cc2ccc(N3CC4CCC(C3)N4C3COC3)nc2)cc1)NC(=O)[C@@H](NC(=O)OC)C(C)(C)C(F)(F)F)C(C)(C)C : 0.25

====

- testDescription: in vivo
- cond: male, SD, rat, in vivo, iv
Answer condition not met if Vd is under 4 L/kg, and condition met if it is 4 L/kg or more.

Solved cases below.
compound | assignedCategory
COC(=O)N[C@H](C(=O)N[C@@H](Cc1ccc(C#Cc2ccc(N3CC4CCC(C3)N4C3COC3)nc2)cc1)[C@@H](O)CN(Cc1c(F)cc(-c2ccccn2)cc1F)NC(=O)[C@@H](NC(=O)OC)C(C)(C)C(F)(F)F)C(C)(C)C(F)(F)F | condition met
COC(=O)N[C@H](C(=O)N[C@@H](Cc1ccc(-c2cnc(N3CC4CCC(C3)N4C3COC3)nc2)cc1)[C@@H](O)CN(Cc1c(F)cc(-c2ccn(C(F)F)n2)cc1F)NC(=O)[C@@H](NC(=O)OC)C(C)(C)C(F)(F)F)C(C)(C)C(F)(F)F | condition not met

Has CC(C)CN(C[C@@H](O)[C@H](Cc1ccccc1)NC(=O)O[C@H]1CO[C@H]2OCC[C@H]21)S(=O)(=O)c1ccc(N)cc1 [darunavir, reference compound] a recorded Vd greater than or equal to 4 L/kg?
condition not met

Has COC(=O)N[C@H](C(=O)N[C@@H](Cc1ccc(C#Cc2ccc(N3CC4CCC(C3)N4C3COC3)nc2)cc1)[C@@H](O)CN(Cc1c(F)cc(-c2cnn(C(F)F)c2)cc1F)NC(=O)[C@@H](NC(=O)OC)C(C)(C)C(F)(F)F)C(C)(C)C(F)(F)F a recorded Vd greater than or equal to 4 L/kg?
condition met

Has COC(=O)N[C@H](C(=O)N[C@@H](Cc1ccc(C#Cc2ccc(N3CC4CCC(C3)N4C3COC3)nc2)cc1)[C@@H](O)CN(Cc1c(F)cc(-c2cc(F)ccn2)cc1F)NC(=O)[C@@H](NC(=O)OC)C(C)(C)C(F)(F)F)C(C)(C)C(F)(F)F a recorded Vd greater than or equal to 4 L/kg?
condition met

Has COC(=O)N[C@H](C(=O)N[C@@H](Cc1ccc(C#Cc2cnc(N3CC4CCC(C3)N4C3COC3)nc2)cc1)[C@@H](O)CN(Cc1c(F)cc(-c2cnn(C(F)F)c2)cc1F)NC(=O)[C@@H](NC(=O)OC)C(C)(C)C(F)(F)F)C(C)(C)C(F)(F)F a recorded Vd greater than or equal to 4 L/kg?
condition met

Has COC(=O)N[C@H](C(=O)N[C@@H](Cc1ccc(C#Cc2cnc(N3CC4CCC(C3)N4C3COC3)nc2)cc1)[C@@H](O)CN(Cc1c(F)cc(-c2ccn(CC(F)F)n2)cc1F)NC(=O)[C@@H](NC(=O)OC)C(C)(C)C(F)(F)F)C(C)(C)C(F)(F)F a recorded Vd greater than or equal to 4 L/kg?
condition met

====

Give measured Human Pred Cl. for each item. Keep answers brief.
- cond: human, microsomes
One number for each entry, in L/H/kg.

smilesNotation | unitsLabel | Human Pred Cl.
COC(=O)N[C@H](C(=O)N[C@@H](Cc1ccc(C#Cc2ccc(N3CC4CCC(C3)N4C)nc2)cc1)[C@@H](O)CN(Cc1c(F)cc(-c2cnn(C(F)F)c2)cc1F)NC(=O)[C@@H](NC(=O)OC)C(C)(C)C(F)(F)F)C(C)(C)C(F)(F)F | L/H/kg | 0.19
COC(=O)N[C@H](C(=O)N[C@@H](Cc1ccc(-c2ccc(N3CC4CCC(C3)N4C3COC3)nc2)cc1)[C@@H](O)CN(Cc1c(F)cc(-c2ccn(C)n2)cc1F)NC(=O)[C@@H](NC(=O)OC)C(C)(C)C(F)(F)F)C(C)(C)C(F)(F)F | L/H/kg | 0.25

// recorded Human Pred Cl. for COC(=O)N[C@H](C(=O)NN(Cc1c(F)cc(-c2ccccn2)cc1F)C[C@H](O)[C@H](Cc1ccc(C#Cc2ccc(N3CC4CCC(C3)N4C3COC3)nc2)cc1)NC(=O)[C@@H](NC(=O)OC)C(C)(C)C(F)(F)F)C(C)(C)C : 0.51

====

Give measured Dog. Pred. Cl. for each item. Keep answers brief.
- cond: dog, microsomes
- Protocol: Liver Microsomal Stability Protocol Test compounds and one control compound (verapamil) were tested in 3 different species in duplicate sets. Test compound concentration: 1 uM; Protein concentration: 0.5 mg/mL (for dog, rat, and human liver microsomes); Cofactor: NADPH-Regenerating system (NRS) solution; Time-points: 2, 12, 25, 45, and 65 minutes. […] After plates were vortexed, they were centrifuged for 30 minutes to remove proteins. […] In vitro measured t1/2 was used to calculate Clint values.
Answers are plain numbers, in L/H/kg.

Field: example entries. Status: answers known.
compound | quantitativeReadout
COC(=O)N[C@H](C(=O)N[C@@H](Cc1ccc(-c2cnc(N3CC4CCC(C3)N4C3COC3)nc2)cc1)[C@@H](O)CN(Cc1c(F)cc(-c2ccn(C(F)F)n2)cc1F)NC(=O)[C@@H](NC(=O)OC)C(C)(C)C(F)(F)F)C(C)(C)C(F)(F)F [Example 199] | 0.91
COC(=O)N[C@H](C(=O)N[C@@H](Cc1ccc(C#Cc2cnc(N3CC4CCC(C3)N4C3COC3)nc2)cc1)[C@@H](O)CN(Cc1c(F)cc(-c2ccn(C(F)F)n2)cc1F)NC(=O)[C@@H](NC(=O)OC)C(C)(C)C(F)(F)F)C(C)(C)C(F)(F)F [Example 171] | 0.27

// next item, Dog. Pred. Cl. requested
// recorded Dog. Pred. Cl. for COC(=O)N[C@H](C(=O)N[C@@H](Cc1ccc(C#Cc2ccc(N3CC4CCC(C3)N4C3COC3)nc2)cc1)[C@@H](O)CN(Cc1ccc(-c2cnn(C(F)F)c2)cc1)NC(=O)[C@@H](NC(=O)OC)C(C)(C)C(F)(F)F)C(C)(C)C(F)(F)F [Example 63] : 0.86

====

Give measured Human Pred Cl. for each item. Keep answers brief.
- cond: human, microsomes

Field: example entries. Status: answers known.
smilesNotation | Human Pred Cl.
COCCN1C2CCC1CN(c1ccc(C#Cc3ccc(C[C@H](NC(=O)[C@@H](NC(=O)OC)C(C)(C)C(F)(F)F)[C@@H](O)CN(Cc4c(F)cc(-c5ccn(C(F)F)n5)cc4F)NC(=O)[C@@H](NC(=O)OC)C(C)(C)C(F)(F)F)cc3)cn1)C2 | <0.11 L/H/kg
COC(=O)N[C@H](C(=O)N[C@@H](Cc1ccc(-c2cnc(N3CC4CCC(C3)N4C3COC3)nc2)cc1)[C@@H](O)CN(Cc1c(F)cc(-c2ncccn2)cc1F)NC(=O)[C@@H](NC(=O)OC)C(C)(C)C(F)(F)F)C(C)(C)C(F)(F)F | 0.27 L/H/kg
COC(=O)N[C@H](C(=O)NNC[C@H](O)[C@H](Cc1ccc(C#Cc2cnc(N3CC4CCC(C3)N4C3COC3)nc2)cc1)NC(=O)[C@@H](NC(=O)OCCc1c(F)cc(-c2cn(C34CC(C3)C4)nn2)cc1F)C(C)(C)C(F)(F)F)C(C)(C)C(F)(F)F | <0.11 L/H/kg
COC(=O)N[C@H](C(=O)N[C@@H](Cc1ccc(C#Cc2ccc(N3CC4CCC(C3)N4C3COC3)nc2)cc1)[C@@H](O)CN(Cc1c(F)cc(-c2cc(F)ccn2)cc1F)NC(=O)[C@@H](NC(=O)OC)C(C)(C)C(F)(F)F)C(C)(C)C(F)(F)F | <0.11 L/H/kg
COC(=O)N[C@H](C(=O)N[C@@H](Cc1ccc(C#Cc2ccc(N3CC4CCC(C3)N4C3COC3)nc2)cc1)[C@@H](O)CN(Cc1c(F)cc(-c2ccn(C(F)F)n2)cc1F)NC(=O)[C@@H](NC(=O)OC1COC1)C(C)(C)C)C(C)(C)C(F)(F)F | <0.11 L/H/kg

Please give Human Pred Cl., item by item, for the list that follows.
1. COC(=O)N[C@H](C(=O)N[C@@H](Cc1ccc(-c2cnc(N3CC4CCC(C3)N4C3COC3)nc2)cc1)[C@@H](O)CN(Cc1c(F)cc(-c2ccn(CC(F)F)n2)cc1F)NC(=O)[C@@H](NC(=O)OC)C(C)(C)C(F)(F)F)C(C)(C)C(F)(F)F
2. COC(=O)N[C@H](C(=O)NN(Cc1c(F)cc(-c2ccn(C(F)F)n2)cc1F)C[C@H](O)[C@H](Cc1ccc(-c2cnc(N3CC4CCC(C3)N4C3COC3)nc2)cc1)NC(=O)[C@@H](NC(=O)OC)C(C)(C)C(F)(F)F)C(C)(C)C
3. COC(=O)N[C@H](C(=O)N[C@@H](Cc1ccc(C#Cc2ccc(N3CC4CC(C3)N4C3COC3)nc2)cc1)[C@@H](O)CN(Cc1c(F)cc(-c2ccn(C3CC3)n2)cc1F)NC(=O)[C@@H](NC(=O)OC)C(C)(C)C(F)(F)F)C(C)(C)C(F)(F)F

1: <0.11 L/H/kg; 2: 0.22 L/H/kg; 3: 0.13 L/H/kg
